- Tested on: Rattus norvegicus
- assayProtocol: Compound was evaluated for percent tranexamic acid recovered in rat urine within 24 hr after oral administration of per moiety tranexamic acid
- Format: ADME, organism-based
- conditionParameters: in vivo
// reported Absorption per item
assayEndpoint: Absorption (%)

| compound | targetOfAssay | recordedResult |
| --- | --- | --- |
| CCN(CC)C(=O)C(OC(=O)[C@H]1CC[C@H](CN)CC1)OC(=O)[C@H]1CC[C@](C)(CN)CC1.Cl.Cl (some centres not stated) | Rattus norvegicus | 17 |
| CC(OC(=O)[C@H]1CC[C@H](CN)CC1)OC(=O)[C@H]1CC[C@](C)(CN)CC1.Cl.Cl (some centres not stated) | Rattus norvegicus | 21 |
| C[C@]1(CN)CC[C@H](C(=O)OCOC(=O)[C@H]2CC[C@H](CN)CC2)CC1.Cl.Cl | Rattus norvegicus | 25 |
| CN(C)C(=O)C(OC(=O)[C@H]1CC[C@H](CN)CC1)OC(=O)[C@H]1CC[C@](C)(CN)CC1.Cl.Cl (some centres not stated) | Rattus norvegicus | 27 |
| CCC(OC(=O)[C@H]1CC[C@H](CN)CC1)OC(=O)[C@H]1CC[C@](C)(CN)CC1.Cl.Cl (some centres not stated) | Rattus norvegicus | 13 |
| C[C@]1(CN)CC[C@H](C(=O)OCc2oc(=O)oc2COC(=O)[C@H]2CC[C@H](CN)CC2)CC1.Cl.Cl | Rattus norvegicus | 27 |
| CCOC(=O)C(OC(=O)[C@H]1CC[C@H](CN)CC1)OC(=O)[C@H]1CC[C@](C)(CN)CC1.Cl.Cl (some centres not stated) | Rattus norvegicus | 31 |
